I'd appreciate it if you could supply koff values for the items below.
# target.of.assay: T1, human FcRn/b2M (human, UniProt P61769 21-119, biotinylated)
# T1 construct: bought recombinant biotinylated protein (ACRO FCM-H82W4 or Immunitrack ITF01); also called hFcRn; hFcRn/hb2M
# assay.notes: SPR pH 7.4;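 further: surface plasmon resonance kinetics, periplasmic extracts diluted 1:10 flowed over immobilized target at 25 °C, 120 s association then 600–3600 s dissociation, buffer with 150 mM NaCl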
Form entry: value (s⁻¹) — number only.

Reported koff of T0263018B11 T28V (VHH, name in Kabat numbering, FLAG3-His6 tagged) VHH: EVQLVESGGGVVQPGGSLRLSCAASGFVFSSYAMYWVRQAPGKGLEWVSAISSGGGSTDYADSVKGRFTISRDNSKNTLYLQMNSLRPEDTALYYCAADTLYTSLTWYSYWGQGTLVTVSS : 0.12

The recorded koff for entry T0263018B11 T28W (VHH, name in Kabat numbering, FLAG3-His6 tagged) VHH: EVQLVESGGGVVQPGGSLRLSCAASGFWFSSYAMYWVRQAPGKGLEWVSAISSGGGSTDYADSVKGRFTISRDNSKNTLYLQMNSLRPEDTALYYCAADTLYTSLTWYSYWGQGTLVTVSS equals 0.024

Looking up T0263018B11 A33S (VHH, name in Kabat numbering, FLAG3-His6 tagged) VHH: EVQLVESGGGVVQPGGSLRLSCAASGFTFSSYSMYWVRQAPGKGLEWVSAISSGGGSTDYADSVKGRFTISRDNSKNTLYLQMNSLRPEDTALYYCAADTLYTSLTWYSYWGQGTLVTVSS , I found its koff recorded as 0.059

koff measured on T0263018B11 T57P (VHH, name in Kabat numbering, FLAG3-His6 tagged) VHH: EVQLVESGGGVVQPGGSLRLSCAASGFTFSSYAMYWVRQAPGKGLEWVSAISSGGGSPDYADSVKGRFTISRDNSKNTLYLQMNSLRPEDTALYYCAADTLYTSLTWYSYWGQGTLVTVSS = 0.045

Quick note, koff for T0263018B11 S30G (VHH, name in Kabat numbering, FLAG3-His6 tagged) VHH: EVQLVESGGGVVQPGGSLRLSCAASGFTFGSYAMYWVRQAPGKGLEWVSAISSGGGSTDYADSVKGRFTISRDNSKNTLYLQMNSLRPEDTALYYCAADTLYTSLTWYSYWGQGTLVTVSS landed at 0.025
